- Tested on: MS2 coat protein
- Assay remarks: apparent KD of MS2 coat protein; designed switch direction (-1 OFF switch, 1 ON switch): 1; higher = weaker reporter binding
- Condition info: input ligand: FMN 200 uM
Use apparent KD of MS2 coat protein to assign classes; range list: zone 1: < 20 nM; zone 2: ≥ 20 nM and < 400 nM; zone 3: ≥ 400 nM

Recorded results for 3 sequences are shown here.
UACAUACGCGGAGGAUAUGGGCGAGGCGCAGAGGUCUGCGUCAAAACAUGAGGAUCACCCAUGUCCCAGAAGGCCGCGUAAACU [Enisen] (Eterna round: R96, puzzle: Same State NG 2)	zone 1
GGCCUGAGUCAAGGAUAUGCUACCGUUUCGGUAGCAGAAGGUGAUCACAUGAGGAUCACCCAUGUUUACGGGAAGACCCGCGCC (Eterna round: R96, puzzle: Same State NG 1)	zone 3
AGCUAUCGAAAACGAUAGCAAAAGCAUGUACAUGAGGAUCACCCAUGUCAUGUACAAGCUUUUUGCUCGUCUUGAAA [Zipper 23 - 9] (Eterna round: R96, puzzle: Sensor for hsa-mir-208a)	zone 3

Quick check: band for CCUUGUAGCGGAGGAUAUGGGCCUCACUCAGUCAAAGAGUGAGAAACAUGAGGAUCACCCAUGUCCCAGAAGGCCGCUGCAUGG [Ridizaer] (Eterna round: R96, puzzle: Same State NG 2)
zone 1

Quick check: band for UGAAUAGUGAUAGGAUAUACAUGAGGAAUCCUCGUAGAAGGAUCACGACAUGAGGAUCACCCAUGUAGCCGUCAGAAGACGGCA [Mat - Same State NG 1 - JL mod - D60] (Eterna round: R96, puzzle: Same State NG 1)
zone 3

Quick check: band for AGCUAUUAAUCAGGAUAUGGUGACAUGAGGAUCACCCAUGUAUAGAUGAUUAAAUGUGGUCUAAACUAGAAGGGAUUGCUAACA [SameState NG2 #55] (Eterna round: R96, puzzle: Same State NG 2)
zone 2

Quick check: band for GAGUGGUUGGGAGGAUAUGCAUUGUUAUUAAAUGCAGAAGGUUUUAACAUGAGGAUCACCCAUGUAGGACUAUUCCUGUGUAUC [Parity 69 - Jieux - Same State NG 1] (Eterna round: R96, puzzle: Same State NG 1)
zone 1

Quick check: band for UUAAUAAUGUUAGGAUAUACAUGAGGAAUCCUCGUAGAAGGAACAUGACAUGAGGAUCACCCAUGUAGCGCUCGAAAGAGCGCA [Mat - Same State NG 1 - JL mod - D48] (Eterna round: R96, puzzle: Same State NG 1)
zone 2
